# protocol.description: Oral bioavailability in mouse at 10 mg/kg
# Format: ADME, organism-based
# condition.parameters: in vivo

compound: C[C@@H]1C(=O)NN=C2COc3cc(-c4ccccc4)c(N(C)C4(C)CN(C)C4)cc3N21
bioavailability [%]: 26
--
compound: C[C@@H]1C(=O)NN=C2COc3cc(-c4ccccc4F)c(C4CCN(C)CC4(C)C)cc3N21 (stereo partly drawn)
bioavailability [%]: 39
--
compound: C[C@@H]1C(=O)NN=C2COc3cc(-c4ccccc4F)c([C@H]4CCN(C)C4)cc3N21
bioavailability [%]: 33
--
compound: C[C@@H]1CN(C)CC[C@@H]1c1cc2c(cc1-c1ccccc1F)OCC1=NNC(=O)[C@@H](C)N12
bioavailability [%]: 53
--
compound: C[C@@H]1C(=O)NN=C2COc3cc(-c4ccccc4F)c([C@@H](C)C4(C)CN(C)C4)cc3N21
bioavailability [%]: 29
--
compound: C[C@@H]1C(=O)NN=C2COc3cc(-c4ccccc4F)c(N(C)C4(C)CN(C)C4)cc3N21
bioavailability [%]: 28
--
compound: C[C@@H]1C(=O)NN=C2COc3cc(-c4ccccc4F)c([C@@H]4CCN(C)C[C@@H]4C)cc3N21
bioavailability [%]: 32
--
compound: C[C@@H]1C(=O)NN=C2COc3cc(-c4ccccc4F)c([C@@H]4CCNC[C@@H]4C)cc3N21
bioavailability [%]: 53
